Origin of measurements: patent US9302999B2

system: barnyardgrass (Echinochloa crus-galli); experiment: Test A pre-/postemergence: barnyardgrass; format: in vivo; settings: Preemergence, 500 g ai/ha; 0 to 100 scale (0 no effect, 100 complete control)
Attribute: Plant response rating, Barnyardgrass
Outcome measure: Plant response rating, Barnyardgrass

1. CCc1nn(-c2ccc(F)cc2)nc1Cc1cccc(C(F)(F)F)c1 [Compound 144]
30
2. Cc1nn(-c2ccnc(C(F)(F)F)c2)nc1Cc1ccnc(C(F)(F)F)c1 [Compound 137]
70
3. Cc1nn(-c2ccc(F)cc2)nc1Oc1cc(C(F)(F)F)ccn1 [Compound 128]
0
4. Cc1nn(-c2ccc(F)c(F)c2)nc1Oc1ccnc(C(F)(F)F)c1 [Compound 145]
100

====

Tested on: sedge, umbrella (small-flower umbrella sedge, Cyperus difformis)
Assay: Test C flooded paddy test: sedge, umbrella
Type: in vivo
Conditions: Flood, 31 g ai/ha; scale 0 to 100 (0 no effect, 100 complete control)
Excerpt: Plant species in the flooded paddy test consisted of rice (Oryza sativa), sedge, umbrella (small-flower umbrella sedge, Cyperus difformis), ducksalad (Heteranthera limosa) and barnyardgrass (Echinochloa crus-galli) grown to the 2-leaf stage for testing. […] Treated plants and controls were maintained in a greenhouse for 13 to 15 days, after which time all species were compared to controls and visually evaluated. […]
# maps each entry to its Plant response rating, Sedge, Umbrella
Outcome measure: Plant response rating, Sedge, Umbrella

1. Cc1nn(-c2ccc(C(F)(F)F)cn2)nc1Cn1ccc(C(F)(F)F)n1
30
2. Cc1nn(-c2ccc(F)cc2)nc1Oc1ccnc(OCC(F)(F)F)c1
0
3. Cc1nn(-c2cccc([N+](=O)[O-])c2)nc1C(=O)c1cccc(C(F)(F)F)c1
0
4. Cc1nn(-c2ccc(C(F)(F)F)cc2)nc1Oc1ccccc1Cl
0
5. CCc1nn(-c2ccc(C(F)(F)F)cc2)nc1Cn1ccc(C(F)(F)F)n1
40
6. Cc1nn(-c2ccc(C(F)(F)F)cc2)nc1Oc1cnn(CC(F)(F)F)c1
0
7. Cc1nn(-c2ccc(F)cc2)nc1Cn1cnc(C(F)(F)F)c1Cl
0
8. Cc1nn(-c2ccc(I)cc2)nc1C(=O)c1cccc(C(F)(F)F)c1
0
9. Cc1nn(-c2ccc(C(F)(F)F)nc2)nc1C(=O)c1cccc(C(F)(F)F)c1
0

====

Pigweed plant response rating for assorted molecules
test system: pigweed (Amaranthus retroflexus); assay: Test A pre-/postemergence: pigweed; format: in vivo; details: Postemergence, 500 g ai/ha; visual rating on 0 to 100 scale (0 no effect, 100 complete control), approximately ten days
Outcome measure: Pigweed plant response rating

1) CC(C)c1nn(-c2ccc(F)cc2)nc1Cc1ccnc(C(F)(F)F)c1 [Compound 151]
80
2) Cc1nn(-c2ccc([N+](=O)[O-])cc2)nc1C(=O)c1cccc(C(F)(F)F)c1 [Compound 41]
80
3) Cc1nn(-c2ccc(C(F)(F)F)cn2)nc1Cn1nc(C(F)(F)F)cc1C [Compound 21]
80

====

system: pigweed (Amaranthus retroflexus); experiment: Test A pre-/postemergence: pigweed; assay type: in vivo; conditions: Preemergence, 125 g ai/ha; 0 to 100 scale (0 no effect, 100 complete control)
Outcome measure: Plant response rating, Pigweed

1. Cc1nn(-c2ccc(F)cc2)nc1Oc1ccnc(OCC(F)(F)F)c1 [Compound 71]
0
2. Cc1nn(-c2cccc([N+](=O)[O-])c2)nc1C(=O)c1cccc(C(F)(F)F)c1 [Compound 62]
0
3. Cc1nn(-c2cccc(C(F)(F)F)c2)nc1Oc1cccc(C(F)(F)F)c1 [Compound 70]
0
4. Cc1nn(-c2cncc(C(F)(F)F)c2)nc1C(=O)c1cccc(C(F)(F)F)c1 [Compound 66]
0
5. Cc1nn(-c2ccc(Cl)cc2)nc1Oc1ccnc(C(F)(F)F)c1 [Compound 52]
100
6. Cc1nn(-c2ccc(Cl)cc2)nc1C(=O)c1cccc(C(F)(F)F)c1 [Compound 42]
10
7. Cc1nn(-c2ccccc2)nc1C(=O)c1cccc(C(F)(F)F)c1 [Compound 43]
50
8. CSc1ccccc1-n1nc(C)c(C(=O)c2cccc(C(F)(F)F)c2)n1 [Compound 6]
0
9. Cc1nn(-c2cccc(C(F)(F)F)n2)nc1C(=O)c1cccc(C(F)(F)F)c1 [Compound 57]
0
10. Cc1nn(-c2ccc(C(F)(F)F)cc2)nc1C(=O)c1cccc(C(F)(F)F)c1 [Compound 45]
10

====

Readings of Plant response rating, Velvetleaf for the listed molecules
system: velvetleaf (Abutilon theophrasti); assay: Test A pre-/postemergence: velvetleaf; type: in vivo; details: Preemergence, 500 g ai/ha; 0 to 100 scale, 0 is no effect, 100 is complete control
Outcome measure: Plant response rating, Velvetleaf

1) Cc1nn(-c2ccc(F)cc2)nc1Oc1ccc(F)c(C(F)(F)F)c1
10
2) COc1nn(-c2ccc(C(F)(F)F)cc2)nc1Cc1cccc(C(F)(F)F)c1
50
3) Cc1nn(-c2ccc(F)cc2)nc1Cn1cnc(C(F)(F)F)c1Cl
0
4) Cc1nn(-c2ccccc2)nc1C(=O)c1cccc(C(F)(F)F)c1
0
5) Cc1nn(-c2ccc(C(F)(F)F)nc2)nc1C(=O)c1cccc(C(F)(F)F)c1
10
6) Cc1nn(-c2ccc(F)cc2Cl)nc1Cc1ccnc(C(F)(F)F)c1
10

====

test system: kochia (Kochia scoparia); assay: Test C pre-/postemergence: kochia; format: in vivo; conditions: Postemergence, 125 g ai/ha; scale 0 to 100, 0 no effect, 100 complete control
Outcome measure: Plant response rating, Kochia

1) Cc1nn(-c2ccc(C(F)(F)F)c(F)c2)nc1Cc1ccnc(C(F)(F)F)c1
95
2) Fc1ccc(-n2nc(Cc3ccnc(C(F)(F)F)c3)c(OCC(F)(F)F)n2)cc1
95
3) CCCc1nn(-c2ccc(C(F)(F)F)c(F)c2)nc1Oc1ccnc(C(F)(F)F)c1
90

====

system: wheat (Triticum aestivum); test: Test A pre-/postemergence: wheat; type: in vivo; conditions: Postemergence, 500 g ai/ha; visual rating on 0 to 100 scale (0 no effect, 100 complete control), approximately ten days
Outcome measure: Wheat plant response rating

1. Cc1nn(-c2ccc(F)cc2)nc1Cc1ccnc(OCC(F)(F)F)c1 [Compound 33]
0
2. Fc1ccc(-n2nc(Cc3ccnc(C(F)(F)F)c3)c(OCC(F)(F)F)n2)cc1 [Compound 142]
80
3. Cc1nn(-c2ccc(F)c(C(F)(F)F)c2)nc1Oc1ccnc(C(F)(F)F)c1 [Compound 147]
50
4. CC(C)c1nn(-c2ccc(F)cc2)nc1Cc1cccc(C(F)(F)F)c1 [Compound 150]
0
5. Cc1nn(-c2ccc(C(F)(F)F)cc2)nc1Oc1ccc(C(F)(F)F)cc1 [Compound 83]
0
6. O=C(c1ccnc(C(F)(F)F)c1)c1nn(-c2ccc(F)cc2)nc1F [Compound 158]
0
7. CCCc1nn(-c2ccc(F)cc2)nc1Cc1ccnc(C(F)(F)F)c1 [Compound 153]
70
8. Cc1nn(-c2ccccc2)nc1C(=O)c1cccc(C(F)(F)F)c1 [Compound 43]
30
9. Fc1ccc(-n2nc(F)c(Cc3ccnc(C(F)(F)F)c3)n2)cc1 [Compound 159]
30
10. CSc1ccc(-n2nc(C)c(C(=O)c3cccc(C(F)(F)F)c3)n2)cc1 [Compound 93]
0
11. Cc1nn(-c2ccc(F)cc2)nc1Oc1ccc(Cl)c(C(F)(F)F)c1 [Compound 99]
20
12. Cc1nn(-c2ccc(C(F)(F)F)cc2)nc1C(=O)c1cccc(C(F)(F)F)c1 [Compound 45]
20
13. Cc1nn(-c2ccc(I)cc2)nc1C(=O)c1cccc(C(F)(F)F)c1 [Compound 61]
0
14. CCc1nn(-c2cccc(C(F)(F)F)c2)nc1Cc1cccc(C(F)(F)F)c1 [Compound 143]
40
15. Cc1nn(-c2ccccc2I)nc1C(=O)c1cccc(C(F)(F)F)c1 [Compound 91]
0
16. Cc1cc(Oc2nn(-c3ccc(F)cc3)nc2C)ccc1F [Compound 86]
0

====

system: foxtail, giant (giant foxtail, Setaria faberii); assay: Test A pre-/postemergence: foxtail, giant; type: in vivo; conditions: Preemergence, 125 g ai/ha; 0 to 100 scale (0 no effect, 100 complete control)
Plant response rating, Foxtail, Giant values for the compounds below.
Outcome measure: Plant response rating, Foxtail, Giant

1. Cc1nn(-c2cnc(Cl)cn2)nc1C(=O)c1cccc(C(F)(F)F)c1 [Compound 50]
10
2. Cc1nn(-c2ccncc2)nc1C(=O)c1cccc(C(F)(F)F)c1 [Compound 22]
20
3. Cc1nn(-c2ccc(C(F)(F)F)cc2)nc1Cc1cnn(CC(F)(F)F)c1 [Compound 51]
0
4. Cc1nn(-c2ccc(C(F)(F)F)cc2)nc1Oc1ccc(C(F)(F)F)cc1 [Compound 83]
0
5. Cc1nn(-c2ccc(F)cc2)nc1Cn1cnc(C(F)(F)F)c1Cl [Compound 36]
0
6. Cc1nn(-c2cccc(Cl)c2)nc1C(=O)c1cccc(C(F)(F)F)c1 [Compound 76]
10
7. Cc1nn(-c2ccc(I)cc2)nc1C(=O)c1cccc(C(F)(F)F)c1 [Compound 61]
0
8. Cc1cc(Oc2nn(-c3ccc(F)cc3)nc2C)ccc1F [Compound 86]
0
